Entries with their measured Ki, system PLK1 (Homo sapiens, UniProt P53350):

What value of Ki has been reported for the following compound? CC(C)[C@@H](CO)Nc1ncc(C#N)c(-c2c[nH]c3ncc(C(F)(F)F)cc23)n1
3 to 40 nM

What value of Ki has been reported for the following compound? C[C@@H](Nc1ncc(C#N)c(-c2c[nH]c3ncc(C(F)(F)F)cc23)n1)C1CCN(C(=O)[C@@H]2CCCN2)CC1
< 3 nM

What value of Ki has been reported for the following compound? C[C@@H](Nc1ncc(C#N)c(-c2c[nH]c3ncc(C(F)(F)F)cc23)n1)C1CCN(C(=O)[C@H](N)c2ccccc2)CC1
3 to 40 nM

What value of Ki has been reported for the following compound? COc1ccc(C(C)Nc2ncc(C#N)c(-c3c[nH]c4ncc(C(F)(F)F)cc34)n2)cc1Cl (stereo not shown)
< 3 nM

What value of Ki has been reported for the following compound? N#Cc1cnc(NCc2ccc(Cl)nc2)nc1-c1c[nH]c2ncc(C(F)(F)F)cc12
> 40 nM

What value of Ki has been reported for the following compound? C[C@H](Nc1ncc(C#N)c(-c2c[nH]c3ncc(C(F)(F)F)cc23)n1)c1ccc(N2CCN(C)CC2)nc1
3 to 40 nM

What value of Ki has been reported for the following compound? CC(Nc1ncc(C#N)c(-c2c[nH]c3ncc(C(F)(F)F)cc23)n1)c1ccc(N2CCOCC2)nc1 (stereo not shown)
< 3 nM

====

What pKi was measured for each of the following?
- system.tested: UniProtKB P53350
- test.method.notes: PLK1 Inhibition Assay I (radioactive-phosphate incorporation)
- Format: biochemical
- cond: Ki(app); PLK1 Inhibition Assay I or II (table does not say which)
pKi: −log10 of the molar value.

What value of pKi has been reported for the following molecule? C[C@@H](Nc1ncc(C#N)c(-c2c[nH]c3ncc(C(F)(F)F)cc23)n1)c1ccc(NC2CCN(C)CC2)nc1
> 8.52

What value of pKi has been reported for the following molecule? COC(=O)Nc1ccc([C@@H](C)Nc2ncc(C#N)c(-c3c[nH]c4ncc(C(F)(F)F)cc34)n2)cc1
> 8.52

What value of pKi has been reported for the following molecule? C[C@@H](Nc1ncc(C#N)c(-c2c[nH]c3ncc(C(F)(F)F)cc23)n1)C1CCN(CCO)CC1
> 8.52

What value of pKi has been reported for the following molecule? N#Cc1cnc(Sc2cccc(Br)c2)nc1-c1c[nH]c2ncc(C(F)(F)F)cc12
< 7.40

What value of pKi has been reported for the following molecule? N#Cc1cnc(NC(CO)c2cccnc2)nc1-c1c[nH]c2ncc(C(F)(F)F)cc12 (stereo not shown)
< 7.40

What value of pKi has been reported for the following molecule? C[C@@H](Nc1ncc(C#N)c(-c2c[nH]c3ncc(C(F)(F)F)cc23)n1)c1ccc(N2CC[C@H](N(C)C)C2)nc1
7.40 to 8.52

What value of pKi has been reported for the following molecule? COc1ccc([C@@H](C)Nc2ncc(C#N)c(-c3c[nH]c4ncc(C(F)(F)F)cc34)n2)cc1
> 8.52

====

What Ki(PLK2)/Ki(PLK1) was measured for each of the following?
- system.tested: PLK2 (Homo sapiens)
- Sequence (Q9NYY3 whole entry): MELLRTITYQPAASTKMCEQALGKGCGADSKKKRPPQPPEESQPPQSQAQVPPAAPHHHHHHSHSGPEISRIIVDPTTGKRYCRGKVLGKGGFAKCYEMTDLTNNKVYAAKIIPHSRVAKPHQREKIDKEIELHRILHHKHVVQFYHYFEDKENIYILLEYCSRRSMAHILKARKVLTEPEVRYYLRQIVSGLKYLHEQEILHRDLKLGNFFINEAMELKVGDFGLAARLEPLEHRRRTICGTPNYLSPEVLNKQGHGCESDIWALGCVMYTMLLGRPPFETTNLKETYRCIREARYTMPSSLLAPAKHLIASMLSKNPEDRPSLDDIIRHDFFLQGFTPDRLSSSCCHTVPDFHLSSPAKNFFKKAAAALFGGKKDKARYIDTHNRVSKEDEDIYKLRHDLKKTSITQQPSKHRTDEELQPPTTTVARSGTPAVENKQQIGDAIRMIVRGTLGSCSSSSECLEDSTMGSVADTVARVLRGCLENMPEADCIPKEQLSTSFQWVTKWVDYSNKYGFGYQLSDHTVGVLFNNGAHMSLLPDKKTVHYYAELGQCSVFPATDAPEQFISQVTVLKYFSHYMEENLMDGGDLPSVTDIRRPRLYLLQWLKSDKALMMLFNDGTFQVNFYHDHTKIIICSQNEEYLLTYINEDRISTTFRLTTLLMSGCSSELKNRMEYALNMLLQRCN
- test.method.notes: PLK2 Inhibition Assay (radioactive-phosphate incorporation)
- Assay type: biochemical
- cond: selectivity ratio, PLK2 over PLK1
No unit in the answer, only the number.

What value of Ki(PLK2)/Ki(PLK1) has been reported for the following compound? CNCCNc1ccc(C(C)Nc2ncc(C#N)c(-c3c[nH]c4ncc(C(F)(F)F)cc34)n2)cn1 (stereo not shown) [Compound I-278]
208

What value of Ki(PLK2)/Ki(PLK1) has been reported for the following compound? CC(Nc1ncc(C#N)c(-c2c[nH]c3ncc(C(F)(F)F)cc23)n1)c1ccc(N2CCCNCC2)cc1 (stereo not shown) [Compound I-131]
180

What value of Ki(PLK2)/Ki(PLK1) has been reported for the following compound? CC(Nc1ncc(C#N)c(-c2c[nH]c3ncc(C(F)(F)F)cc23)n1)c1ccc(N[C@@H]2CCNC2)nc1 (stereo partly shown) [Compound I-272]
67

What value of Ki(PLK2)/Ki(PLK1) has been reported for the following compound? CC(Nc1ncc(C#N)c(-c2c[nH]c3ncc(C(F)(F)F)cc23)n1)c1ccc(N2CCN(C)CC2)cc1 (stereo not shown) [Compound I-102]
113

====

Entries with their measured Ki, system PLK1 (Homo sapiens, UniProt P53350):

What value of Ki has been reported for the following molecule? N#Cc1cnc(NC(CO)c2ccccc2)nc1-c1c[nH]c2ncc(C(F)(F)F)cc12 (stereo not drawn) [Compound I-75]
3 to 40 nM

What value of Ki has been reported for the following molecule? CC(Nc1ncc(C#N)c(-c2c[nH]c3ncc(C(F)(F)F)cc23)n1)c1ccc(S(C)(=O)=O)cc1 (stereo not drawn) [Compound I-155]
< 3 nM

What value of Ki has been reported for the following molecule? C[C@@H](Nc1ncc(C#N)c(-c2c[nH]c3ncc(C(F)(F)F)cc23)n1)c1ccc(NS(C)(=O)=O)c(F)c1 [Compound I-177]
< 3 nM

What value of Ki has been reported for the following molecule? N#Cc1cnc(NCCN2CCSCC2)nc1-c1c[nH]c2ncc(C(F)(F)F)cc12 [Compound I-86]
> 40 nM

What value of Ki has been reported for the following molecule? C[C@H](Nc1ncc(C#N)c(-c2c[nH]c3ncc(C(F)(F)F)cc23)n1)c1ccc(O[C@@H]2CCN(C)C2)nc1 [Compound I-301]
> 40 nM

What value of Ki has been reported for the following molecule? N#Cc1cnc(NC2CC2)nc1-c1c[nH]c2ncc(C(F)(F)F)cc12 [Compound I-76]
> 40 nM

What value of Ki has been reported for the following molecule? CCC(Nc1ncc(C#N)c(-c2c[nH]c3ncc(C(F)(F)F)cc23)n1)C1CCN(C(C)=O)CC1 (stereo not drawn) [Compound I-174]
< 3 nM

What value of Ki has been reported for the following molecule? CC(=O)N[C@H]1CC[C@@H]([C@@H](C)Nc2ncc(C#N)c(-c3c[nH]c4ncc(C(F)(F)F)cc34)n2)CC1 [Compound I-209]
3 to 40 nM

What value of Ki has been reported for the following molecule? N#Cc1cnc(NCCc2ccccc2)nc1-c1c[nH]c2ncc(C(F)(F)F)cc12 [Compound I-7]
> 40 nM

What value of Ki has been reported for the following molecule? CCC(Nc1ncc(C#N)c(-c2c[nH]c3ncc(C(F)(F)F)cc23)n1)C1CCN(S(=O)(=O)C(C)C)CC1 (stereo not drawn) [Compound I-182]
3 to 40 nM

What value of Ki has been reported for the following molecule? CC(Nc1ncc(C#N)c(-c2c[nH]c3ncc(C(F)(F)F)cc23)n1)C1(F)CCN(C(=O)[C@@H](C)O)CC1 (stereo partly drawn) [Compound I-237]
< 3 nM

What value of Ki has been reported for the following molecule? N#Cc1cnc(NCCC2CCCN2)nc1-c1c[nH]c2ncc(C(F)(F)F)cc12 (stereo not drawn) [Compound I-85]
> 40 nM

What value of Ki has been reported for the following molecule? CC(=O)Nc1ccc(CNc2ncc(C#N)c(-c3c[nH]c4ncc(C(F)(F)F)cc34)n2)cc1 [Compound I-72]
3 to 40 nM

What value of Ki has been reported for the following molecule? CC(=O)N1CCC([C@@H](C)Nc2ncc(C#N)c(-c3c[nH]c4ncc(C(F)(F)F)cc34)n2)CC1 [Compound I-134]
< 3 nM

What value of Ki has been reported for the following molecule? CC(=O)N[C@H]1CC[C@H]([C@@H](C)Nc2ncc(C#N)c(-c3c[nH]c4ncc(C(F)(F)F)cc34)n2)CC1 [Compound I-208]
< 3 nM

====

- system.tested: PLK2 (Homo sapiens)
- test.method.notes: PLK2 Inhibition Assay (radioactive-phosphate incorporation)
- Format: biochemical
- cond: selectivity ratio, PLK2 over PLK1
Each entry falls in a class defined on Ki(PLK2)/Ki(PLK1); the bands are I: < 300; II: ≥ 300 and < 1000; III: ≥ 1000

Bin? C[C@@H](Nc1ncc(C#N)c(-c2c[nH]c3ncc(C(F)(F)F)cc23)n1)c1ccc(N2CCN(C)CC2)c(F)c1
I

Bin? C[C@@H]1CN(c2ccc([C@@H](C)Nc3ncc(C#N)c(-c4c[nH]c5ncc(C(F)(F)F)cc45)n3)cn2)CCN1
III

Bin? C[C@H](Nc1ncc(C#N)c(-c2c[nH]c3ncc(C(F)(F)F)cc23)n1)c1ccc(N2CCN(C)CC2)nc1
I

Bin? CC(Nc1ncc(C#N)c(-c2c[nH]c3ncc(C(F)(F)F)cc23)n1)c1ccc(N2CCNCC2)nc1 (stereo not drawn)
II

Bin? CC(Nc1ncc(C#N)c(-c2c[nH]c3ncc(C(F)(F)F)cc23)n1)c1ccc(N2CCCN(C)CC2)cc1 (stereo not drawn)
I

Bin? CC(Nc1ncc(C#N)c(-c2c[nH]c3ncc(C(F)(F)F)cc23)n1)c1ccc(N2CCNCC2)cc1 (stereo not drawn)
II

Bin? C[C@H]1CN(c2ccc([C@@H](C)Nc3ncc(C#N)c(-c4c[nH]c5ncc(C(F)(F)F)cc45)n3)cn2)CCN1
III

Bin? C[C@@H](Nc1ncc(C#N)c(-c2c[nH]c3ncc(C(F)(F)F)cc23)n1)c1ccc(N2CCNCC2)nc1
III

Bin? C[C@@H]1CN(c2ccc([C@@H](C)Nc3ncc(C#N)c(-c4c[nH]c5ncc(C(F)(F)F)cc45)n3)cn2)C[C@H](C)N1
III

Bin? CNCCN(C)c1ccc([C@@H](C)Nc2ncc(C#N)c(-c3c[nH]c4ncc(C(F)(F)F)cc34)n2)cn1
II

Bin? C[C@@H](Nc1ncc(C#N)c(-c2c[nH]c3ncc(C(F)(F)F)cc23)n1)c1ccc(N2CCN(C)CC2)cc1F
I

Bin? C[C@@H](Nc1ncc(C#N)c(-c2c[nH]c3ncc(C(F)(F)F)cc23)n1)c1ccc(N2CCN(C)CC2)cc1
I

Bin? C[C@@H](Nc1ncc(C#N)c(-c2c[nH]c3ncc(C(F)(F)F)cc23)n1)c1ccc(N2CCN(C)CC2)nc1 (single isomer, unassigned)
II
